biological target: cloned human P2Y1 receptors (Homo sapiens (Human), UniProt P47900); experiment: Binding Assay B: Scintillation Proximity Assay (SPA) for P2Y1 binding; conditions: SPA, 0.3 nM [33P] 2MeS-ADP, Cheng-Prusoff; read-out: P2Y1 Ki (nM) using binding assay B
Sequence (P47900 whole entry): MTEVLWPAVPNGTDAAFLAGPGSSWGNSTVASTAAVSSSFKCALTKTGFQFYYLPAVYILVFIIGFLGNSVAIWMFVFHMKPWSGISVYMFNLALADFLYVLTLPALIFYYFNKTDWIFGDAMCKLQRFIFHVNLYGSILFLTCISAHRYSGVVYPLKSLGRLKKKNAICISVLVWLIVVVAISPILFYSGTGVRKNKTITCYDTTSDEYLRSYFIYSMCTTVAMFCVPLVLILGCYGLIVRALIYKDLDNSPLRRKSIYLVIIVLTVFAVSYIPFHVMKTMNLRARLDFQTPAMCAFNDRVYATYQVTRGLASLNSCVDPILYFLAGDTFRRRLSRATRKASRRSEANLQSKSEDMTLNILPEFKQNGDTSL
Reported log10 Ki values are given for each entry in this list.
Record value = log10 of Ki given in nM.

Some solved entries appear below for comparison.
INSERT INTO measurements (chemical_structure, tested_system, numeric_readout) VALUES
  ('CC(C)(C)CN1CCC2(CC1)CN(c1ccccc1Nc1nnc(-c3ccc(OC(F)(F)F)cc3)s1)c1c(O)ccc(Cl)c12', 'cloned human P2Y1 receptors (Homo sapiens (Human), UniProt P47900)', 1.11),
  ('CC(C)(C)CN1CCC2(CC1)CN(c1ccccc1Nc1nnc(-c3ccc(C(F)(F)F)cc3)s1)c1c(O)ccc(C(F)(F)F)c12', 'cloned human P2Y1 receptors (Homo sapiens (Human), UniProt P47900)', 1.20),
  ('CC(C)(C)CN1CCC2(CC1)CN(c1ccccc1Nc1nnc(-c3ccccc3Cl)s1)c1c(O)ccc(Cl)c12', 'cloned human P2Y1 receptors (Homo sapiens (Human), UniProt P47900)', 1.45),
  ('CC(C)(C)CN1CCC2(CC1)CN(c1ccccc1Nc1nnc(-c3ccc(C(C)(C)C)cc3)s1)c1c(O)ccc(C(F)(F)F)c12', 'cloned human P2Y1 receptors (Homo sapiens (Human), UniProt P47900)', 1.41),
  ('CC(C)(C)CN1CCC2(CC1)CN(c1ccccc1Nc1cc(-c3ccccc3)on1)c1c(O)ccc(Cl)c12', 'cloned human P2Y1 receptors (Homo sapiens (Human), UniProt P47900)', 1.82),
  ('COC(=O)c1ccc(O)c2c1C1(CCN(CC(C)(C)C)CC1)CN2c1ccccc1Nc1nnc(-c2ccc(C(C)(C)C)cc2)s1', 'cloned human P2Y1 receptors (Homo sapiens (Human), UniProt P47900)', 0.90),
  ('CC(C)(C)CN1CCC2(CC1)CN(c1ccccc1Nc1nnc(-c3cccc(Cl)c3)s1)c1c(O)ccc(Cl)c12', 'cloned human P2Y1 receptors (Homo sapiens (Human), UniProt P47900)', 1.20),
  ('CC(C)(C)CN1CCC2(CC1)CN(c1ccccc1Nc1nc(-c3ccccc3)ns1)c1c(O)ccc(Cl)c12', 'cloned human P2Y1 receptors (Homo sapiens (Human), UniProt P47900)', 0.78);

Moving on to the next compound.
# input compound: CC(C)(C)CN1CCC2(CC1)CN(c1ccccc1Nc1nnc(-c3ccc(Cl)cc3)s1)c1c(O)ccc(Cl)c12 ; wanted: its log10 Ki
1.11

====

target: cloned human P2Y1 receptors (Homo sapiens (Human), UniProt P47900); assay: Binding Assay B: Scintillation Proximity Assay (SPA) for P2Y1 binding
readout.kind: pKi
Just the number, please; pKi means minus log10 of the concentration in mol/L.

Some solved entries appear below for comparison.
INSERT INTO assay_data (molecule, tested_system, numeric_readout) VALUES
  ('Cc1cccc(-c2nnc(Nc3ccccc3N3CC4(CCN(CC(C)(C)C)CC4)c4c(Cl)ccc(O)c43)s2)c1 [Example 22]', 'cloned human P2Y1 receptors (Homo sapiens (Human), UniProt P47900)', 7.66),
  ('CC(C)(C)CN1CCC2(CC1)CN(c1ccccc1Nc1nnc(-c3ccc(Cl)c(Cl)c3)s1)c1c(O)ccc(Cl)c12 [Example 25]', 'cloned human P2Y1 receptors (Homo sapiens (Human), UniProt P47900)', 7.72),
  ('CC(C)(C)CN1CCC2(CC1)CN(c1ccccc1Nc1nnc(-c3cc(F)ccc3Cl)s1)c1c(O)ccc(Cl)c12 [Example 24]', 'cloned human P2Y1 receptors (Homo sapiens (Human), UniProt P47900)', 7.55);

# input molecule: CC(C)(C)CN1CCC2(CC1)CN(c1ccccc1Nc1nnc(-c3ccccc3)s1)c1c(O)ccc(C(F)(F)F)c12 [Example 1] ; wanted: its pKi
8.00

Next record, please: CC(C)CN1CCc2nc(Nc3ccccc3N3CC4(CCN(CC(C)(C)C)CC4)c4c(Cl)ccc(O)c43)sc2C1 [Example 41]
7.68

Next record, please: Cn1nc(C(C)(C)C)cc1-c1nnc(Nc2ccccc2N2CC3(CCN(CC(C)(C)C)CC3)c3c(Cl)ccc(O)c32)s1 [Example 18]
7.48

Next record, please: CC(C)(C)CN1CCC2(CC1)CN(c1ccccc1Nc1nnc(-c3ccc(F)cc3)s1)c1c(O)ccc(C(F)(F)F)c12 [Example 4]
7.82

====

Target: cloned human P2Y1 receptors (Homo sapiens (Human), UniProt P47900)
Test: Binding Assay A: membrane binding assay, [33P] 2MeS-ADP, WGA FlashPlates
Details: starred values; FlashPlate, 0.5 nM [33P] 2MeS-ADP, Cheng-Prusoff; read-out: P2Y1 Ki (nM), *Using binding assay A
Experimental: A membrane binding assay was used to identify inhibitors of [^33P] […] Binding reactions were performed in WGA FlashPlates (PerkinElmer Life Sciences, Cat # SMP105A) in a volume of 200 μL containing ˜45 fmol of P2Y1 receptor (5 μg of total protein), 0.5 nM [^33P] […] Plates were sealed and the residual [^33P] bound to the plate determined by scintillation counting.
readout.kind: Ki (nM)
Express the result in nM but write the number alone.

# input compound: CC(C)(C)CN1CCC2(CC1)CN(c1ccccc1Nc1nnc(-c3cnccn3)s1)c1c(O)ccc(Cl)c12 ; wanted: its Ki
6.5

Next record, please: Cc1cc(-c2nnc(Nc3ccccc3N3CC4(CCN(CC(C)(C)C)CC4)c4c(Cl)ccc(O)c43)s2)n(C)n1
6.6

====

target: cloned human P2Y1 receptors (Homo sapiens (Human), UniProt P47900); experiment: Binding Assay B: Scintillation Proximity Assay (SPA) for P2Y1 binding
readout.kind: Ki

INSERT INTO measurements (chemical_structure, readout_kind, result) VALUES
  ('CC(C)(C)CN1CCC2(CC1)CN(c1ccccc1Nc1nnc(-c3cc(Cl)cc(Cl)c3)s1)c1c(O)ccc(Cl)c12', 'Ki', '19 nM'),
  ('CC(C)(C)CN1CCC2(CC1)CN(c1ccccc1Nc1nnc(-c3ccc(C(F)(F)F)cn3)s1)c1c(O)ccc(Cl)c12', 'Ki', '7 nM'),
  ('CC(C)(C)CN1CCC2(CC1)CN(c1ccccc1Nc1nc(C(C)(C)C)ns1)c1c(O)ccc(Cl)c12', 'Ki', '8 nM');

Moving on to the next molecule.
# input molecule: CC(C)(C)CN1CCC2(CC1)CN(c1ccccc1Nc1nnc(-c3ccc(OC(F)(F)F)cc3)s1)c1c(O)ccc(F)c12 ; wanted: its Ki
5 nM

====

molecular target: UniProtKB P47900; test: Binding Assay B: Scintillation Proximity Assay (SPA) for P2Y1 binding
Reported Ki values are given for each entry in this list.
Express the result in nM but write the number alone.

INSERT INTO assay_data (chemical_structure, numeric_readout) VALUES
  ('CC(C)(C)CN1CCC2(CC1)CN(c1ccccc1Nc1nnc(-c3ccc(OC(F)(F)F)cc3)s1)c1c(O)cc(F)c(Cl)c12', 23);

# input molecule: CC(C)(C)CN1CCC2(CC1)CN(c1ccccc1Nc1nnc(-c3ccc(C(C)(C)C)cc3)s1)c1c(O)ccc(C#N)c12 ; wanted: its Ki
10

====

Reported Ki values are given for each entry in this list.
target: cloned human P2Y1 receptors (Homo sapiens (Human), UniProt P47900); experiment: Binding Assay B: Scintillation Proximity Assay (SPA) for P2Y1 binding
Report as: number unit

Some solved entries appear below for comparison.
INSERT INTO results (molecule, result) VALUES
  ('CC(C)(C)CN1CCC2(CC1)CN(c1ccccc1Nc1cc(-c3ccc(C(F)(F)F)cc3)on1)c1c(O)ccc(Cl)c12 [Example 37]', '60 nM'),
  ('CC(C)(C)CN1CCC2(CC1)CN(c1ccccc1Nc1nnc(-c3cccc(C(F)(F)F)c3)s1)c1c(O)ccc(Cl)c12 [Example 27]', '24 nM');

# input molecule: CC(C)(C)CN1CCC2(CC1)CN(c1ccccc1Nc1nnc(-c3ccccn3)s1)c1c(O)ccc(Cl)c12 [Example 28] ; wanted: its Ki
6.8 nM

Next record, please: CC(C)(C)CN1CCC2(CC1)CN(c1ccccc1Nc1nnc(-c3ccc(Cl)cc3)s1)c1c(O)ccc(F)c12 [Example 31]
6 nM

Next record, please: CC(C)(C)CN1CCC2(CC1)CN(c1ccccc1Nc1nnc(-c3ccc(OC(F)(F)F)cc3)s1)c1c(O)cc(F)c(F)c12 [Example 34]
37 nM

Next record, please: CC(C)(C)CN1CCC2(CC1)CN(c1ccccc1Nc1nnc(-c3ccc(C(F)(F)F)cc3)s1)c1c(O)ccc(C#N)c12 [Example 45]
3 nM

Next record, please: CC(C)(C)CN1CCC2(CC1)CN(c1ccccc1Nc1nnc(-c3cccc(F)c3)s1)c1c(O)ccc(Cl)c12 [Example 29]
23 nM

====

molecular target: cloned human P2Y1 receptors (Homo sapiens (Human), UniProt P47900); test: Binding Assay A: membrane binding assay, [33P] 2MeS-ADP, WGA FlashPlates; conditions: read-out: P2Y1 Ki (nM), *Using binding assay A
readout.kind: Ki

Some solved entries appear below for comparison.
INSERT INTO results (compound, result) VALUES
  ('CCOC(=O)c1sc(Nc2ccccc2N2CC3(CCN(CC(C)(C)C)CC3)c3ccccc32)nc1C(F)(F)F [Comparator 2, reference compound]', '6.3 nM'),
  ('CC(C)(C)CN1CCC2(CC1)CN(c1ccccc1Nc1nc(C(F)(F)F)c(-c3ccccc3)s1)c1ccccc12 [Comparator 4, reference compound]', '7.9 nM'),
  ('COC(=O)c1sc(Nc2ccccc2N2CC3(CCN(CC(C)(C)C)CC3)c3ccccc32)nc1C [Comparator 3, reference compound]', '18 nM'),
  ('CC(C)(C)CN1CCC2(CC1)CN(c1ccccc1Nc1nnc(C3CCOCC3)s1)c1c(O)ccc(Cl)c12 [Example 14]', '155 nM');

Moving on to the next compound.
# input compound: CC(C)(C)CN1CCC2(CC1)CCN(c1ccccc1Nc1nc3ccc(C(C)(C)C)cc3[nH]1)c1ccccc12 [Comparator 1, reference compound] ; wanted: its Ki
259 nM
